# Tested on: A549
# experimentDescription: NCI tumour cell line growth inhibition, 48 h
The source made the active and inactive calls. No stated cut-off is given here; in the data, active = GI50 up to about 1.1 µM and inactive = higher.
Choose the fitting class; nothing outside active, inactive is accepted.

Example cases with answers are listed next.
COC(=O)C1=CC2OC1(C)CCC2=O (centres undefined) | inactive
O=C1NC(=S)NC(=O)C1=Cc1ccc(-c2ccccc2)cc1 | inactive
COc1cc(OC)c2c(=O)c3c([N+](=O)[O-])cccc3n(C)c2c1 | inactive
CCOC(=O)C(C(=O)OCC)c1ccc([N+](=O)[O-])o1 | inactive

Now examine the next entry.
-- ask Which outcome was entered for the compound C#CC1(O)C(COP(=O)(O)OC(COCCCCCCCCCCCCCCCCCC)COP(=O)(O)OCC2OC(n3cc(C)c(=O)[nH]c3=O)CC2N=[N+]=[N-])OC(n2ccc(N)nc2=O)C1O (centres undefined) in this test?
-- reply active

* * *

# System: SR
# experimentDescription: NCI tumour cell line growth inhibition, 48 h
The source made the active and inactive calls. Cut-off read from the data, not from the text of the source: active = GI50 up to about 1.1 µM and inactive = higher.
As shown below, each of these molecules has a reported GI50 value.

Here is how some molecules turned out for GI50.
CCC1C2C=CC(CC2)N1S(=O)(=O)c1ccc(C)cc1 (centres undefined) | 22.4 µM (inactive)
Cc1cccc(/C=N/NC(=S)NC2CCCCC2)n1 | 4.76 µM (inactive)
CCCCCCCCCCCCC(=O)NCC(=O)NC(Cc1ccccc1)C(=O)Oc1ccc([N+](=O)[O-])cc1 (centres undefined) | 33.7 µM (inactive)

# context switch: different molecule, same GI50
# GI50 (molecule: O=C(N/C(=C\c1cc(Cl)ccc1Cl)c1nc2ccccc2[nH]1)c1ccccc1 ) is 24.4 µM (inactive)

* * *

# Test system: SF-268
# experimentDescription: NCI tumour cell line growth inhibition, 48 h
The source made the active and inactive calls. No stated cut-off is given here; in the data, active = GI50 up to about 1.1 µM and inactive = higher.
Choose the fitting class; nothing outside active, inactive is accepted.

Example cases with answers are listed next.
CCOC(=O)c1cc(-c2ccc(OC)c(OC)c2)cn1C | inactive
CC1(CO)OC(n2cnc3cncnc32)CC1O (stereo not drawn) | inactive
COC1=CC(=O)c2c(cc(COP(=O)(N(C)CCBr)N(C)CCBr)n2C)C1=O | active
CC(=O)O[C@H]1C(=O)[C@@]2(C)[C@H]([C@H](OC(=O)c3ccccc3)[C@]3(O)C[C@H](OC(=O)[C@H](O)[C@@H](NC(=O)c4cccc(N=[N+]=[N-])c4)c4ccccc4)C(C)=C1C3(C)C)[C@]1(OC(C)=O)CO[C@@H]1C[C@@H]2O | active
Cc1ccc(N2CCC3(CC2)OCCO3)cc1 | inactive
O=C(CC1(O)C(=O)Nc2c(Cl)cc(Cl)cc21)c1ccc(Br)cc1Br (stereo not drawn) | inactive
CC(=O)NC1C(OCc2ccccc2)OC(CO)C(O)C1OC(C)C(=O)NC(C(=O)N[C@@H](CCC(=O)NCCNCCNc1c2ccccc2nc2cccc([N+](=O)[O-])c12)C(N)=O)C(C)C (stereo partly drawn) | inactive

-- ask Which outcome was entered for the molecule COP(=O)(CC(=O)C1OC(C)(C)OC1C(O)COCc1ccccc1)OC (stereo not drawn) in this test?
-- reply inactive

* * *

# Tested on: RXF 631
# experimentDescription: NCI tumour cell line growth inhibition, 48 h
Calls of active or inactive are those of the source. Cut-off read from the data, not from the text of the source: active = GI50 up to about 1.1 µM and inactive = higher.
As shown below, each of these molecules has a reported GI50 value.

CC(C)COC(=O)N1N=NC2C3CC(=O)C(O3)C21 (stereo unspecified) | > 100 µM (inactive)
COC1OC(CO)C(O)C1N (stereo unspecified) | > 100 µM (inactive)

Query CCN(CC)/[N+]([O-])=N/OCC(C)O (stereo unspecified) on RXF 631; GI50 returned: > 100 µM (inactive)

Query Cc1c(Cl)cccc1NC(=O)C(=O)C(C(=O)c1ccccc1-c1ccccc1)C1OC(=O)c2ccccc21 (stereo unspecified) on RXF 631; GI50 returned: 23.7 µM (inactive)

Query COc1ccc2n[se]nc2c1 on RXF 631; GI50 returned: 61.4 µM (inactive)
